- SYSTEM UNDER TEST: Ubiquitin carboxyl-terminal hydrolase 7 (Homo sapiens)
- Sequence (Q93009 whole entry, the tested form may be a part): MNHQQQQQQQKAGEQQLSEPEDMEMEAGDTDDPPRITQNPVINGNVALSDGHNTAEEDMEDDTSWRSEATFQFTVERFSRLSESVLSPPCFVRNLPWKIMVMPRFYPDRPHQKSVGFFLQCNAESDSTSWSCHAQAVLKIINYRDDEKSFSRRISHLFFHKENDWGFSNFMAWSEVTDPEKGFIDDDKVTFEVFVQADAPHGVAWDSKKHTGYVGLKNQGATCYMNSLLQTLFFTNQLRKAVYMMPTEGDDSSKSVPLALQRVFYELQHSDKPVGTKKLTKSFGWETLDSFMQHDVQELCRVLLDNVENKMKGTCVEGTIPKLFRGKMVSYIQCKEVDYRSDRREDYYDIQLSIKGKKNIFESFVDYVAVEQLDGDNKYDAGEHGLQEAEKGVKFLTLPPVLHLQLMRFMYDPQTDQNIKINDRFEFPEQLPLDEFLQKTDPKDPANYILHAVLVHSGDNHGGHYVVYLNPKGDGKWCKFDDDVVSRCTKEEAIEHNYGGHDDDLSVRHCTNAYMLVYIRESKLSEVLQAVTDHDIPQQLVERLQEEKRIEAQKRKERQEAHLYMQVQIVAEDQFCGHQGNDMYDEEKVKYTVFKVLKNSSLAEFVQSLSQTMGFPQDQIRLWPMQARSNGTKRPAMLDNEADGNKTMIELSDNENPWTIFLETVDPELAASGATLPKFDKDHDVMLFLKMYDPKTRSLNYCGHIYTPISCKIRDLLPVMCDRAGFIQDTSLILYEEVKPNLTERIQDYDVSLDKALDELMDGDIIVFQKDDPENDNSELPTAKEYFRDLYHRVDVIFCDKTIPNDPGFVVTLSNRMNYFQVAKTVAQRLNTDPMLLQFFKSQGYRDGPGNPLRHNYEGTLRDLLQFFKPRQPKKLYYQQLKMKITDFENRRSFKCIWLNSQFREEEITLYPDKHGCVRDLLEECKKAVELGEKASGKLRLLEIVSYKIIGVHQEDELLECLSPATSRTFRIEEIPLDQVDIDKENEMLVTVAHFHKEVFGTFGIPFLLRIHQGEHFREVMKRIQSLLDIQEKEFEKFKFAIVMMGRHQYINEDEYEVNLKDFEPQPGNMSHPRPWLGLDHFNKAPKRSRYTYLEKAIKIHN
- TEST METHOD NOTES: Activation of USP7 catalytic domain (208 to 560 residues) (unknown origin) expressed in Escherichia coli BL21(DE3) assessed as Ub-AMC hydrolysis preincubated for 15 mins followed by Ub-AMC addition and measured every 1 min by fluorescence based analysis
MEASUREMENT LABEL: EC50 (µM)
Answer format: numeric, µM implied, no suffix.

Query: Dear colleague, I am looking for the recorded EC50 of the following compound: COc1ccc(CCN2CCC(Nc3nc4ccccc4n3Cc3ccc(F)cc3)CC2)cc1
Response: 32.2
